Tested on: U2OS
assayDetails: Incucyte cell viability with U2OS; note: unitless GR value; below 1 slowed growth and below 0 cell loss
Format: toxicity, cell-based
testConditions: human, 18 h, 10 µM, compound concentration 10 uM, replicate number 2
experimentalEndpoint: Growth Rate
Numbers only.

CCC(=N\O)/C(C)=C/c1ccc(F)cc1 :: 0.78

Consider the following items and state reported Growth Rate for each.
1. O=C1NC(=NCc2cccs2)SC1=Cc1ccc2ncccc2c1
2. CCCOc1cnc(CN/C=C2\C(=O)NC(=O)c3ccc(I)cc32)cc1O
3. CCc1cc2c(cc1N1CCC(N3CCOCC3)CC1)C(C)(C)c1[nH]c3cc(C#N)ccc3c1C2=O

[0.45, 0.38, 1]

Look at this molecule and give its reported Growth Rate. CCOC(=O)c1cnn(-c2ccc(NC(=O)C(Cl)=C(Cl)Cl)cc2)c1C(F)(F)F
-0.43

----------
System: U2OS
assayDetails: Incucyte cell viability with U2OS; note: unitless GR value; below 1 slowed growth and below 0 cell loss
Assay type: toxicity, cell-based
testConditions: human, 12 h, 10 µM, compound concentration 10 uM, replicate number 2
experimentalEndpoint: Growth Rate
One number for each entry.

CCCOc1cnc(CN/C=C2\C(=O)NC(=O)c3ccc(I)cc32)cc1O :: 0.75
Cn1cc(-c2cnc3ccc4ccc(CS(=O)(=O)NCc5ccccn5)cc4c(=O)c3c2)cn1 :: 0.75

Now look at this entry.
Look at this molecule and give its reported Growth Rate. Cc1c(-c2cc(-c3ccccc3Cl)no2)cnn1C1CCNCC1.Cl
0.66

----------
Test system: U2OS
assayDetails: Incucyte cell viability with U2OS; note: unitless GR value; below 1 slowed growth and below 0 cell loss
Format: toxicity, cell-based
testConditions: human, 6 h, 10 µM, compound concentration 10 uM, replicate number 1
Tick Fulfilled if Growth Rate is 0.7 or greater. Tick Not fulfilled if Growth Rate is less than 0.7.

Some solved cases for reference:
Cn1c(C2(NC(=O)c3ccc(NCC4CCCCC4)nc3)CCC2)nc2ccc(/C=C/C(=O)O)cc21 :: Fulfilled
COc1ncc(-c2cc(-c3ncc(CN4C[C@@H](C)O[C@@H](C)C4)o3)c3cn[nH]c3c2)cc1NS(C)(=O)=O :: Not fulfilled
COC(=O)c1ccc2c(c1)NC(=O)/C2=C(\Nc1ccc(N(C)C(=O)CN2CCN(C)CC2)cc1)c1ccccc1 :: Not fulfilled
O=C(O)CCC/C=C\C[C@@H]1[C@@H](/C=C/[C@@H](O)COc2cccc(C(F)(F)F)c2)[C@H](O)C[C@@H]1O :: Fulfilled

Quick check: does CN1CCN(c2ccc(Nc3ncc4cc5n(c4n3)C3(CCCCC3)CNC5=O)nc2)CC1 have Growth Rate greater than or equal to 0.7?
Not fulfilled

Do the same for Cc1nc2ccc(Oc3ccc(F)cc3)cc2c(=O)n1C[C@H]1CCCN(C(C)C)C1.Cl please
Fulfilled

----------
Tested on: Fibroblast
assayDetails: Incucyte cell viability with human fibroblast; note: unitless GR value; below 1 slowed growth and below 0 cell loss
Type: toxicity, cell-based
testConditions: 0 h, 10 µM, compound concentration 10 uM, replicate number 1
Provide the recorded Growth Rate for the entries that follow.
One number for each entry.

Cc1cc(CN)cc(C)c1-c1ncn(C)c1-c1ccnc2cc(F)ccc12.Cl :: -1
O=C(O)c1ccc2c(c1)nc(NCc1ccccc1)c1ncncc12 :: -0.98

Consider the following items and state reported Growth Rate for each.
1. CC(C)S(=O)(=O)c1ccccc1Nc1nc(N[C@@H]2CCCN(CCCCCCCNC(=O)COc3cccc4c3C(=O)N(C3CCC(=O)NC3=O)C4=O)C2)ncc1Cl (stereo not given in full)
2. CC(=O)NCC(=O)N1[C@@H]2CC[C@H]1c1ccc(Nc3ncc(C(F)(F)F)c(NC4CCC4)n3)cc12

1. -1
2. -0.26

Look at this compound and give its reported Growth Rate. CN1C(=O)c2ccccc2N(C)c2nc(Nc3cnn(C4CCNCC4)c3)ncc21
-0.99

src = ChEMBL document CHEMBL5303304
